experiment: Quantitative High-Throughput drug screen in 47 multiple myeloma cell lines against the NCATS MIPE library collection: KMS28BM_JCRB cell viability assay (AID 1919874); conditions: CellTiter-Glo ATP, 48 h; series mostly up to 45.8 µM; further: nearly all actives have a fitted effect of over 35% in size
Records with an inconclusive call do not appear. Calls of active or inactive are those of the source. The call rests on the fitted dose curve; in most records, active means well fitted cell-killing curve with a large enough effect; inconclusive means small, poorly fitted or top-dose-only effect, or effect the other way; inactive means no such curve, though single readings can be large or run the other way.
Respond only with the outcome that fits, drawn from active, inactive

Solved entries:
Exercise: Hi team, can someone confirm the assay call for CC[C@@H]1C(=O)N(C)c2cnc(Nc3ccc(C(=O)NC4CCN(C)CC4)cc3OC)nc2N1C1CCCC1 ?
Key: active

Exercise: Hi team, can someone confirm the assay call for Cn1cncc1[C@@](N)(c1ccc(Cl)cc1)c1ccc2c(c1)c(-c1cccc(Cl)c1)cc(=O)n2C ?
Key: active

Exercise: Hi team, can someone confirm the assay call for CN[C@H]1CCc2cc(OC)c(OC)c(OC)c2-c2ccc(OC)c(=O)cc21 ?
Key: active

Exercise: Hi team, can someone confirm the assay call for O=C(Nc1cn[nH]c1-c1nc2ccc(CN3CCOCC3)cc2[nH]1)NC1CC1 ?
Key: active

Exercise: Hi team, can someone confirm the assay call for COc1cc2c(Oc3ccc(-c4cnc(Nc5ccc(F)cc5)n(C)c4=O)cc3F)ccnc2cc1OCCCN1CCOCC1 ?
Key: active

Exercise: Hi team, can someone confirm the assay call for CN1CCC(CNc2ccc3ncc(-c4cccc(OC(F)(F)F)c4)n3n2)CC1 ?
Key: active

Exercise: Hi team, can someone confirm the assay call for C1Cc2[nH]nc(-c3nn[nH]n3)c2C1 ?
Key: inactive

Exercise: Hi team, can someone confirm the assay call for CNC(=O)c1ccc(-c2cnc3ncc(Cc4ccc5ncccc5c4)n3n2)cc1F ?
Key: inactive

***
Exercise: Hi team, can someone confirm the assay call for Clc1cccc(-c2nnnn2Cc2cccnc2)c1Cl ?
Key: inactive

Exercise: Hi team, can someone confirm the assay call for Cc1c(CN2CCN(S(C)(=O)=O)CC2)sc2c(N3CCOCC3)nc(-c3cnc(N)nc3)nc12 ?
Key: active

Exercise: Hi team, can someone confirm the assay call for O=C(Nc1nc2cccc(-c3ccc(CN4CCS(=O)(=O)CC4)cc3)n2n1)C1CC1 ?
Key: active

Exercise: Hi team, can someone confirm the assay call for CC=CC1=C(C(=O)O)N2C(=O)[C@H](NC(=O)[C@H](N)c3ccc(O)cc3)[C@@H]2SC1 ?
Key: inactive

Exercise: Hi team, can someone confirm the assay call for O=C(CCCCCCC(=O)Nc1ccc([C@H]2O[C@@H](CSc3nc(-c4ccccc4)c(-c4ccccc4)o3)C[C@@H](c3ccc(CO)cc3)O2)cc1)NO ?
Key: active

Exercise: Hi team, can someone confirm the assay call for CN1CCN(c2cc(C(=O)Nc3ccc4c(c3)-c3c(c(C(N)=O)nn3-c3ccc(F)cc3)CC4)c(Cl)cn2)CC1 ?
Key: active

Exercise: Hi team, can someone confirm the assay call for CN(C)CC=CC(=O)Nc1cc2c(Nc3ccc(F)c(Cl)c3)ncnc2cc1O[C@H]1CCOC1 ?
Key: active

Exercise: Hi team, can someone confirm the assay call for Cc1coc2c1C(=O)C(=O)c1c-2ccc2c1CCCC2(C)C ?
Key: inactive
